Biological target: human GPCR142 (human, UniProt Q8TDU9 1-374)
Sequence (Q8TDU9 whole entry L329S): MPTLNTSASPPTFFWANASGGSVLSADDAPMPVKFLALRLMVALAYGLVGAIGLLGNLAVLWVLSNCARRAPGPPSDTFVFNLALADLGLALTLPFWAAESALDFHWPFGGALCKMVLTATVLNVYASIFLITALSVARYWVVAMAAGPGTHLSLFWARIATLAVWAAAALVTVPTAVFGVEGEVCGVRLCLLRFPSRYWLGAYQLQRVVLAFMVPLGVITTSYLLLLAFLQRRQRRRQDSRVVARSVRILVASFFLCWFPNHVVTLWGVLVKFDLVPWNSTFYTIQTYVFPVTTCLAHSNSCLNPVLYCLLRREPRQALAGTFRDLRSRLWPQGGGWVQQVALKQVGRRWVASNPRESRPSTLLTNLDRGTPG
Assay: cell-based or functional assay
Ends that are not written are not given here.
Below: a set of entries, each annotated with reported EC50, inhibition of forskolin stimulated β-galactosidase expression.
endpoint-label: EC50, inhibition of forskolin stimulated β-galactosidase expression (nM)

binder="RAAPYGVRLCGREFIRAVIFTCGGSRWPYVALFEKCCLIGCTKRSLAKYC (ligand, disulfide (positions not given here); also: two chains (relaxin-3 B-chain, relaxin-1 A-chain), disulfide-linked, chain break not marked, Mature two-chain peptide: human relaxin-3 B-chain disulfide-linked to human relaxin-1 A-chain; Made in COS-7 cells with furin; the FLAG tag was removed with enterokinase) [human relaxin-3/relaxin-1 chimeric polypeptide (R3/R1), mature]" unit_abbreviation=nM relational_operator== reported=2.2
binder="human relaxin-3/relaxin-2 chimeric polypeptide (R3/R2), mature (ligand, disulfide (positions not given here); also: two-chain peptide (relaxin-3 B chain, relaxin-2 A chain), disulfide-linked, places not given here, Mature two-chain peptide: human relaxin-3 B-chain disulfide-linked to human relaxin-2 A-chain; FLAG tag removed) RAAPYGVRLCGREFIRAVIFTCGGSRWQLYSALANKCCHVGCTKRSLARFC" unit_abbreviation=nM relational_operator== reported=1.4
binder="RAAPYGVRLCGREFIRAVIFTCGGSRWFDPFCCEVICDDGTSVKLC (ligand, disulfide (positions not given here); also: two chains (relaxin-3 B-chain, INSL4 A-chain), disulfide-linked, chain break not marked, Mature two-chain peptide: human relaxin-3 B-chain disulfide-linked to human INSL4 A-chain; FLAG tag removed) [human relaxin-3/INSL4 chimeric polypeptide (R3/I4), mature]" unit_abbreviation=nM relational_operator=> reported=1000
